assay.notes: in vivo
recorded.conditions: male, beagle, dog, plasma, po, 500 mg
Structures can show the parent of a compound that is named as a salt.
value.kind: Cmax (ng/mL)
One number for each entry, in ng/mL.

Fill in reported Cmax for this entry: CN(C)C(=N)N=C(N)N [Metformin (Matrix-free), metformin hydrochloride] 12400

* * *

assay.notes: in vivo
recorded.conditions: male, beagle, dog, plasma, po, 500 mg
Structures can show the parent of a compound that is named as a salt.
value.kind: AUC(0-t) (ng·h/mL)
One number for each entry, in ng·h/mL.

Quickly give me recorded AUC(0-t) for CN(C)C(=N)N=C(N)N [Metformin (Matrix-free), metformin hydrochloride] 77900

* * *

assay.notes: in vivo
recorded.conditions: male, beagle, dog, plasma, po, 500 mg
Counter-ions that a name gives are not always drawn.
value.kind: Tmax (h)
Numbers only, in h.

// fetch Tmax given entry CN(C)C(=N)N=C(N)N [Metformin (Matrix-free), metformin hydrochloride] 1.3

* * *

assay.notes: in vivo
recorded.conditions: male, beagle, dog, plasma, po, 500 mg
Counter-ions that a name gives are not always drawn.
value.kind: MRT

Complete the entry with MRT for CN(C)C(=N)N=C(N)N [Metformin (Matrix-free), metformin hydrochloride] 8.02 h

FYI, the data here is from patent US20240293327A1.
